Kindly state pKd for each of the entries shown.
molecular target: T1, streptavidin (UniProt P22629 37-163, limits assumed); assay: apparent Kd (Kd,app); fluorescent binding curve, labeled SA in 50% blood serum, 4 h; quadratic fit
T1 construct: It was used without a stated label in the sandwich assays; also called SA
T1 sequence (P22629 37-163 limits assumed): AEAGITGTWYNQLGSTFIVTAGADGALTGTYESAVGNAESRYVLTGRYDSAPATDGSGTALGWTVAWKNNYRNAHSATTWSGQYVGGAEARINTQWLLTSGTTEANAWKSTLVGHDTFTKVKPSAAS
In simple prose, pKd is minus the logarithm base ten of a concentration in moles per litre.

Challenge: Sample rcSso7d.SA monolayer (designed binder, EDC/NHS-activated protein coupled to an amine-functionalized silicon wafer, also called monomeric rcSso7d.SA; surface-immobilized rcSso7d.SA) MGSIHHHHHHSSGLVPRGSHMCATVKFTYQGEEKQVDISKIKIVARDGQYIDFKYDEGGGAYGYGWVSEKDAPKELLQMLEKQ — what was its pKd?
Response given: 4.40

Challenge: Sample 3xSP30.3k thin film (3x rcSso7d.SA-PNIPAM conjugate, PNIPAM Mn 30.3 kDa) (designed binder, maleimide end-functionalized PNIPAM (Mn 30.3 kDa) on the N-terminal Cys; film lightly crosslinked with glutaraldehyde) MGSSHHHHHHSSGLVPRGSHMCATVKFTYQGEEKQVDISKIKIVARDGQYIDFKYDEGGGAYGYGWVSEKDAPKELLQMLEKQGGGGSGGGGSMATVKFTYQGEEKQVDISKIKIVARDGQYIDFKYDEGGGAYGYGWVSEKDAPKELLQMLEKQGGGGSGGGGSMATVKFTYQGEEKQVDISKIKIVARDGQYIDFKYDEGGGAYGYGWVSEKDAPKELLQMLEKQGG — what was its pKd?
Response given: 4.40

Challenge: Sample 3xSP77.6k thin film (3x rcSso7d.SA-PNIPAM conjugate, PNIPAM Mn 77.6 kDa) (designed binder, maleimide end-functionalized PNIPAM (Mn 77.6 kDa) on the N-terminal Cys; film lightly crosslinked with glutaraldehyde) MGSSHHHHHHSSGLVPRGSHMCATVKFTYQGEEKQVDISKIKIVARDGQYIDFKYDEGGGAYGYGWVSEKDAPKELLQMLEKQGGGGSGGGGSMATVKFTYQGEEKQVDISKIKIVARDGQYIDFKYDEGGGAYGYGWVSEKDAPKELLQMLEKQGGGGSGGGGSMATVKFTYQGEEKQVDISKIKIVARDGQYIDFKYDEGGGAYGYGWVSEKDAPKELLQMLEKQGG — what was its pKd?
Response given: 4.40

Challenge: Sample 3xSP9.6k thin film (3x rcSso7d.SA-PNIPAM conjugate, PNIPAM Mn 9.6 kDa) (designed binder, maleimide end-functionalized PNIPAM (Mn 9.6 kDa) on the N-terminal Cys; film lightly crosslinked with glutaraldehyde) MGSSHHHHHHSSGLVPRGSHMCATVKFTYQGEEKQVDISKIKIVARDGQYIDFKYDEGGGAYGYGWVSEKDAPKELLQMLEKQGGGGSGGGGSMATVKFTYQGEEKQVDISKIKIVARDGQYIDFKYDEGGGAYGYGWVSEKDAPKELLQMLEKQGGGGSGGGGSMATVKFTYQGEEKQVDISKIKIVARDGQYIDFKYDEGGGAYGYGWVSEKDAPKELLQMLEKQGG — what was its pKd?
Response given: 4.30
